Measurement record for Somatostatin receptor type 3 (Homo sapiens, UniProt P32745); quantity recorded: pIC50.
pIC50: −log10 of the molar value. Bridge positions count the residues as written; N and C are the ends. Peptide text beside a SMILES is read from it.

{"columns": ["COMPOUND", "MEASURED_ON", "pIC50"],
 "data": [
  ["C[C@@H](O)[C@@H]1NC(=O)[C@H](CCCCN)NC(=O)[C@@H](Cc2c[nH]c3ccccc23)NC(=O)[C@H](Cc2ccccc2)NC(=O)[C@H](Cc2ccccc2)NC(=O)[C@@H](NC(N)=O)CSSC[C@@H](C(=O)O)NC(=O)[C@H](Cc2ccc(O)cc2)NC1=O (stereo in doubt)", "Somatostatin receptor type 3 (Homo sapiens, UniProt P32745)", 7.80],
  ["C[C@@H](O)[C@@H]1NC(=O)[C@H](CCCCN)NC(=O)[C@H](Cc2c[nH]c3ccccc23)NC(=O)[C@H](Cc2ccccc2)NC(=O)[C@H](Cc2ccccc2)NC(=O)[C@@H](N)CSSC[C@@H](C(=O)O)NC(=O)[C@H](Cc2ccccc2)NC1=O (H-CFFWKTFC-OH; disulfide 1-8)", "Somatostatin receptor type 3 (Homo sapiens, UniProt P32745)", 7.89],
  ["C[C@@H](O)[C@@H]1NC(=O)[C@H](CCCCN)NC(=O)[C@H](Cc2c[nH]c3ccccc23)NC(=O)[C@H](Cc2ccc(O)cc2)NC(=O)[C@H](Cc2ccccc2)NC(=O)[C@@H](N)CSSC[C@@H](C(=O)O)NC(=O)[C@H](Cc2ccccc2)NC1=O", "Somatostatin receptor type 3 (Homo sapiens, UniProt P32745)", 7.66],
  ["C[C@@H]1NC(=O)[C@H](Cc2ccccc2)NC(=O)[C@@H](NC(=O)[C@@H](N)Cc2ccc(O)c(I)c2)CSSC[C@@H](C(=O)O)NC(=O)[C@H](Cc2ccccc2)NC(=O)[C@H]([C@@H](C)O)NC(=O)[C@H](CCCCN)NC(=O)[C@H](Cc2c[nH]c3ccccc23)NC1=O", "Somatostatin receptor type 3 (Homo sapiens, UniProt P32745)", 5.99]
]}

====

# MEASURED_ON: Somatostatin receptor type 5 (Homo sapiens)
# Sequence (P35346 whole entry): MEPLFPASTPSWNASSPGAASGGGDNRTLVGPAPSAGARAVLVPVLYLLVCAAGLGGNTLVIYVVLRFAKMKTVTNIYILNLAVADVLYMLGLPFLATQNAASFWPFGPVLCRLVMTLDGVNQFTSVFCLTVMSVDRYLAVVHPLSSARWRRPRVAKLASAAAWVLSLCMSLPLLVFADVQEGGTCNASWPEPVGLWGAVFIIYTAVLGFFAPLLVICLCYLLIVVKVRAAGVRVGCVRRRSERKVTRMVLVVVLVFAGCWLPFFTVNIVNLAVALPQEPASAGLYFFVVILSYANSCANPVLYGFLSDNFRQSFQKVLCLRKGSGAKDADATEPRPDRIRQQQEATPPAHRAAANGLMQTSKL
pIC50: −log10 of the molar value. Numbered stars: 1 amine (or outer) side, 2 acyl side, 3 side chain; on linkers, the order of the positions; unused ones are H or OH. Bridge positions count the residues as written; N and C are the ends. Square brackets hold non-standard residues; d marks the D form. Peptide text beside a SMILES is read from it. * marks the point of attachment. Tyr(Nα-carbamoyl) = NC(=O)N[C@@H](Cc1ccc(O)cc1)C(=O)*; X3 = C[C@H](c1c[nH]c2ccccc12)[C@@H](N[*:1])C(=O)[*:2]; Trp(βS-Me) = C[C@@H](c1c[nH]c2ccccc12)[C@H](N)C(=O)O
METRIC: pIC50

{"columns": ["COMPOUND", "METRIC", "RESULT_MODIFIER", "OBS_VALUE"],
 "data": [
  ["C[C@H](c1c[nH]c2ccccc12)[C@H]1NC(=O)[C@H](Cc2ccccc2)NC(=O)[C@H](Cc2ccccc2)NC(=O)[C@@H](N)CSSC[C@@H](C(=O)O)NC(=O)[C@H](Cc2ccccc2)NC(=O)[C@H]([C@@H](C)O)NC(=O)[C@H](CCCCN)NC1=O (H-CFF[X3]KTFC-OH; disulfide 1-8)", "pIC50", "=", 7.38],
  ["C[C@@H](O)[C@@H]1NC(=O)[C@H](CCCCN)NC(=O)[C@H]([C@@H](C)c2c[nH]c3ccccc23)NC(=O)[C@H](Cc2ccccc2)NC(=O)[C@H](Cc2ccccc2)NC(=O)[C@@H](N)CSSC[C@@H](C(=O)O)NC(=O)[C@H](Cc2ccccc2)NC1=O (H-CFF[Trp(βS-Me)]KTFC-OH; disulfide 1-8)", "pIC50", "=", 6.66],
  ["C[C@@H]1NC(=O)[C@H](Cc2ccccc2)NC(=O)[C@@H](NC(=O)[C@H](Cc2ccc(O)cc2)NC(N)=O)CSSC[C@@H](C(=O)O)NC(=O)[C@H](Cc2ccccc2)NC(=O)[C@H]([C@@H](C)O)NC(=O)[C@H](CCCCN)NC(=O)[C@H](Cc2c[nH]c3ccccc23)NC1=O ({Tyr(Nα-carbamoyl)}-CFAWKTFC-OH; disulfide 1-8)", "pIC50", "<", 6.00]
]}
